Target: T1, human serum albumin (human, UniProt P02768 25-609)
T1 construct: also called HSA
Assay: Octet HTX (ForteBio), HCAb on AHC sensor, 1:1 fit
OBSERVATION_TYPE: koff (s⁻¹)
Give just the numeric value; s⁻¹ need not be written.

Worked cases, koff given:
CNG-HSA-102 (VHH) VHH: KVQLLESGGGLVQPGGSLRLSCAASGFTFSSFGMSWVRQAPGKGLEWVSSISGSGSDTLYADSVRGRFTISRDNSKNTLYLQMNSLRPEDTAVYYCTIGGSLSPSSQGTLVTVSS = 0.000748
CNG-HSA-101 (VHH) VHH: KVQLVESGGGLVQPGGSLRLSCAASGFTFSSFGMTWVRQAPGKGLEWVSSISGSGSDTLYADSVRGRFTISRDNSKNTLYLQMNSLRAEDTAVYYCTIGGSLSPSSQGTLVTVSS = 0.000716
CNG-HSA-113 (VHH) VHH: GVQLLESGGGLVQPGGSLRLSCAASGFTFSSFGMSWVRQAPGKGLEWVSSISGTGSDTLYADSVKGRFTISRDNSKNTLYLQMNSLRPEDTAVYYCTIGGSLRYSSQGTLVTVSS = 0.00214

Okay, now this binder:
What value of koff has been recorded for this entry: CNG-HSA-106 (VHH) VHH: KVQLLESGGGLVQPGGSLRLSCAASGFTFSSFGMSWVRQAPGKGLEWVSSISGSGSDTLYADSVRGRFTISRDNSKNTLYLQMDSLRAEDTAVYYCTIGGSRSISSQGTLVTVSS
0.00297
